The values you see were collected from PubChem BioAssay (Tox21).

EXPERIMENT NOTES: qHTS assay to identify small molecule antagonists of the retinoid-related orphan receptor gamma (ROR-gamma) signaling pathway - cell viability counter screen (AID 1159520); further: nearly all actives have a fitted effect of over 50% in size
COND: Tet-on RORgamma CHO cells viability, ATP luminescence, 16 h; series mostly up to 92.4 µM
Method: U.S. Tox21 Program National Center for Advancing Translational Sciences [NCATS] NIH Chemical Genomics Center [NCGC] U.S. Environmental Protection Agency [EPA] National Institutes of Environmental Health Sciences [NIEHS] National Toxicology Program [NTP] U.S. Food and Drug Administration [FDA] […] Reporter gene activity was induced using Doxycycline Hyclate and measured after 16 hr incubation. […]
Inconclusive results are not listed. Active and inactive are the calls of the source. The call rests on the fitted dose curve; in most records, active means well fitted cell-killing curve with a large enough effect in the repeat runs; inconclusive means weak or mixed curves, or effect the other way; inactive means no such curve, though single readings can be large or run the other way.
Labels: class 1 = active, class 0 = inactive

COMPOUND	ASSIGNED CLASS
[O]=[Cr][O][Cr]=[O]	class 0
N#CSCc1ccccc1	class 0
Nc1ccc(N=Nc2ccccc2)cc1	class 0
COCCC#N	class 0
CCCCc1ccccc1	class 0
[C-]1=CC=CC1.[Cl][Zr+2][Cl].c1cc[cH-]c1	class 0
CN1C2CCC(C)(C)C1CC(OC(=O)C(O)(c1cccs1)c1cccs1)C2 (stereo not drawn)	class 0
[Cl-].[Cl-].[Cl-].[Yb+3]	class 0
CC(Cc1ccc(O)cc1)NCC(O)c1cc(O)cc(O)c1 (stereo not drawn)	class 0
CCOC(=O)Cc1ccccc1	class 0
CCCCn1cc[n+](C)c1.[Cl][Fe-]([Cl])([Cl])[Cl]	class 0
CC(Cc1ccc2c(c1)OCO2)NO (stereo not drawn)	class 0
[Cl-].[Cl-].[Sn+2]	class 0
CSC(C)(C)/C=N/O	class 0
O=C(O)CCCCCCNC1c2ccccc2CCc2ccccc21	class 0
C=Cc1cccc(CCl)c1	class 0
Clc1cc(Cl)c(-c2cc(Cl)c(Cl)cc2Cl)cc1Cl	class 0
COc1ccc2[nH]cc(CCN(C(C)C)C(C)C)c2c1	class 0
CCN(CC)Cc1nccn1-c1ccc([N+](=O)[O-])cc1C(=O)c1ccccc1Cl	class 0
CC#C[C@]1(O)CC[C@H]2[C@@H]3C[C@H](C)C4=CC(=O)CC[C@]4(C)[C@H]3CC[C@@]21C	class 0
CCOP(=O)(Sc1ccccc1)Sc1ccccc1	class 0
O=[N+]([O-])c1ccc(Cl)c(Cl)c1Cl	class 0
ClSC(Cl)(Cl)Cl	class 0
CCOP(=S)(OCC)Oc1cc(C)nc(N(CC)CC)n1	class 0
CC(Cc1ccccc1)N(C)Cc1ccco1 (stereo not drawn)	class 0
c1csc(-c2ccc(-c3cccs3)s2)c1	class 0
O=[N+]([O-])C(Br)Br	class 1
O=C(CCCCl)c1ccc(F)cc1	class 0
O=Cc1ccccc1	class 0
O=[N+]([O-])c1ccc(CCl)cc1	class 0
Oc1ccc2[nH]cc(CCCCN3CC=C(c4ccccc4)CC3)c2c1	class 0
Cc1c([N+](=O)[O-])cc2c(c1[N+](=O)[O-])C(C)(C)CC2(C)C	class 0
CCC1(CC)C(=O)N=C(O)NC1=O	class 0
CCCCC(CC)COC(=O)c1ccccc1C(=O)OCC(CC)CCCC (stereo not drawn)	class 0
O=S(=O)(O)F	class 0
N#CC(C#N)=NNc1cccc(Cl)c1	class 1
CCCCC/C=C\C/C=C\C/C=C\C/C=C\CCCC(=O)NCC(=O)O	class 0
CC(C)N(C(=O)SC/C(Cl)=C/Cl)C(C)C	class 0
CN	class 0
C#CCO	class 0
Cc1ccn2nc(S(=O)(=O)Nc3c(F)cccc3F)nc2n1	class 0
O=NN(CCO)CCO	class 0
COC(=O)/C=C(\C)OP(=O)(OC)OC	class 0
CC(C)C(Nc1ccc(C(F)(F)F)cc1Cl)C(=O)OC(C#N)c1cccc(Oc2ccccc2)c1 (stereo not drawn)	class 0
CC[C@H](C)[C@H]1O[C@]2(C=C[C@@H]1C)C[C@@H]1C[C@@H](C/C=C(\C)[C@@H](O[C@H]3C[C@H](OC)[C@@H](O[C@H]4C[C@H](OC)[C@@H](NC)[C@H](C)O4)[C@H](C)O3)[C@@H](C)/C=C/C=C3\CO[C@@H]4[C@H](O)C(C)=C[C@@H](C(=O)O1)[C@]34O)O2	class 1
CNC(=O)CSP(=O)(OC)OC	class 0
ClC1=C(Cl)[C@]2(Cl)[C@H]3[C@H]([C@@H]4C=C[C@H]3C4)[C@@]1(Cl)C2(Cl)Cl	class 1
CC(C)NCC(O)c1ccccc1Cl (stereo not drawn)	class 0
S=C=Nc1ccccc1	class 0
CC(=O)[O-].CC(=O)[O-].O.O.O.[Pb+2]	class 0
O=[N+]([O-])c1cc(C(F)(F)F)c(Cl)c([N+](=O)[O-])c1Nc1ncc(C(F)(F)F)cc1Cl	class 1
O=[N+]([O-])c1cccc2cccc([N+](=O)[O-])c12	class 0
Oc1cc(Cl)c(Cl)c(Cl)c1Cl	class 1
